# Test system: 556581-035-R-J1-PDC complex spheroid growth;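 further: spheroids exposed to agents for 7 days before viability read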
# experiment.summary: Anticancer human tumor 556581-035-R-J1-PDC patient-derived ovarian carcinoma cell line growth inhibition [Asc]
# condition.description: second compound 1 µM; first compound 3.16 µM; stronger effect = lower value
# Source text: Multicellular complex tumor spheroid response to apoptosis pathway targeting inhibitors Alrizomadlin, Pelcitoclax, and Dasminapant in combination with a variety of drugs and investigational agents in selected tumor cell lines […] Compounds. […] If the clinical Cmax for an agent had not been determined, the highest concentration tested was 10 microM. […]
Please respond with reported viability, T/C for every item in the list.
# output: bare number, implied unit %

## Task Please report the measured viability, T/C for C=C(F)C(=O)N1CCN(c2nc(OCC3CCCN3C)nc3c2CCN(c2cccc4cccc(Cl)c24)C3)CC1CC#N (stereo not drawn) + CNC(C)C(=O)NC1CN(S(=O)(=O)c2cccc(S(=O)(=O)N3CCC4CCC(C(=O)NC(c5ccccc5)c5ccccc5)N4C(=O)C(NC(=O)C(C)NC)C3)c2)CCC2CCC(C(=O)NC(c3ccccc3)c3ccccc3)N2C1=O
## Result 24.4

## Task Please report the measured viability, T/C for C=CC(=O)N1CCN(c2nc(=O)n(-c3c(C)ccnc3C(C)C)c3nc(-c4c(O)cccc4F)c(F)cc23)C(C)C1 (stereo not drawn) + Cc1c(S(C)(=O)=O)c(-c2cc(F)cc(N3CCN(c4ccc(NS(=O)(=O)c5ccc(NC(CCN6CCC(C(=O)OCCCP(=O)(O)O)CC6)CSc6ccccc6)c(S(=O)(=O)C(F)(F)F)c5)cc4)CC3)c2)c(-c2ccc(Cl)cc2)n1C(C)C
## Result 73.6

## Task Please report the measured viability, T/C for C#Cc1c(F)ccc2cc(O)cc(-c3ncc4c(N5CC6CCC(C5)N6)nc(OCC56CCCN5CC(F)C6)nc4c3F)c12 (stereo not drawn) + CNC(C)C(=O)NC1CN(S(=O)(=O)c2cccc(S(=O)(=O)N3CCC4CCC(C(=O)NC(c5ccccc5)c5ccccc5)N4C(=O)C(NC(=O)C(C)NC)C3)c2)CCC2CCC(C(=O)NC(c3ccccc3)c3ccccc3)N2C1=O
## Result 57.9
